molecular target: TYK2 (Homo sapiens, UniProt P29597); construct: Degradation of TYK2 in cells was quantitatively measured using Meso Scale Discovery (MSD) technology; endogenous in cells; host or cells: OCI-LY10; assay: TYK2 MSD degradation in OCI-LY10 cells; type: cell-based; conditions: TYK2 degradation in OCI-LY10 cells, 4 to 24 hours incubation
Sequence (P29597 whole entry): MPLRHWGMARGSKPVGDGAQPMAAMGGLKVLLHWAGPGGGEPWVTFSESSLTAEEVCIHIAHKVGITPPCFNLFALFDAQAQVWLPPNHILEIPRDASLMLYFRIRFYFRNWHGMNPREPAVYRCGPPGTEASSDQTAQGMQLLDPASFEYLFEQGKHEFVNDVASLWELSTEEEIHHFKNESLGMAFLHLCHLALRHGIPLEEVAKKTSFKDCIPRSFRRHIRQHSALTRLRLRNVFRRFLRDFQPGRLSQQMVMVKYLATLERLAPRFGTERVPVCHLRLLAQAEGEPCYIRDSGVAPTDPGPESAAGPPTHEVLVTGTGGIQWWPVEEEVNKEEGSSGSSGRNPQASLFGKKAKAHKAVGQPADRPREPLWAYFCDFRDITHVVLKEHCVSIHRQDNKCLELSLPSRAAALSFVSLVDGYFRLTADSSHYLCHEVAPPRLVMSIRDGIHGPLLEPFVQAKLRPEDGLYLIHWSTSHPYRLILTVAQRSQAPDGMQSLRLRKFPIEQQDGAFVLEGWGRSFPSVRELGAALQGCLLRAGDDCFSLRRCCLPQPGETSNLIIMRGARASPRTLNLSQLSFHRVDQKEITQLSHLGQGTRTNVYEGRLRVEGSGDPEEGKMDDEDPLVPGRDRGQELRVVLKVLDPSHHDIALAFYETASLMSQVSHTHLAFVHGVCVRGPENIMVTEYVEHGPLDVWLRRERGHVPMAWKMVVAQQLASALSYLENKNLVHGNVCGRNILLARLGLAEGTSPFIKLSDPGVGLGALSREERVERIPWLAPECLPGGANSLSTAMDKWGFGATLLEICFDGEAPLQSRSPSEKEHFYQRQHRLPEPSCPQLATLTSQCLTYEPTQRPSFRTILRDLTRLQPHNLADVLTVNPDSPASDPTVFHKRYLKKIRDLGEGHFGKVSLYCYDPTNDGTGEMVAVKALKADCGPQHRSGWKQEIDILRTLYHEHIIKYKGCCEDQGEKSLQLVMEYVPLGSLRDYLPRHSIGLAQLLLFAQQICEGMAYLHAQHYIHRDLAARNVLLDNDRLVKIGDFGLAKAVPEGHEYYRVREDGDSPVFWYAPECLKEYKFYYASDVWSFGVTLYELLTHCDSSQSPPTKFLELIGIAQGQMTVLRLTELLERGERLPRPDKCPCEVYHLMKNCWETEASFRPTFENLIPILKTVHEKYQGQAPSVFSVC
Observation type: TYK2 MSD OCI-LY10 Dmax %

INSERT INTO measurements (molecule, measured) VALUES
  ('CNC(=O)c1cnc(Nc2ccc(C(=O)NCCOCCOCCOCCOCCN(C(=O)C3CCCN(c4cncc5ccccc45)C3)c3ccc(=O)n(CC(=O)O)c3)cn2)cc1Nc1cccc(-c2ncccn2)c1OC (stereo not drawn) [I-920]', 'D (D (<50%))'),
  ('CNc1cc(N2CCc3c(-c4ccc(CN5CCC6(CCN(C(=O)c7ccc(Cl)c(N8CCC(=O)NC8=O)c7)CC6)C(F)(F)C5)cn4)cccc32)nn2c(C(=O)N[C@H]3CC[C@@H]3C(F)(F)F)cnc12 [I-1103]', 'D (D (<50%))');

---

DC50 values for the molecules below.
Biological target: TYK2 (Homo sapiens)
Construct: Degradation of TYK2 in cells was quantitatively measured using Meso Scale Discovery (MSD) technology; endogenous in cells; host or cells: OCI-LY10
Assay: TYK2 MSD degradation in OCI-LY10 cells
Assay type: cell-based
Conditions: TYK2 degradation in OCI-LY10 cells, 4 to 24 hours incubation, read-out: TYK2 MSD OCI-LY10 Rel-DC50
Method: Example 7. TYK2 MSD Degradation Degradation of TYK2 in cells was quantitatively measured using Meso Scale Discovery (MSD) technology. OCI-LY10 cells were seeded in 96-well plates with a density of 0.4 million cells per well in 100 μl fresh media. […] The assay plates were then incubated at room temperature for 1 hour, washed 3 times with 150 μl/well TB ST buffer, and 150 μl/well MSD reading buffer (MSD, R92TC-2) were added. The plates were then analyzed by an MSD reader. […]

Ask | Give recorded DC50. CNc1cc(N2CC3(CCN(Cc4ccc5c(c4)n(C)c(=O)n5C4CCC(=O)NC4=O)CC3)c3ccccc32)nn2c(C(=O)NC3CC3)cnc12 (centres unmarked)
Reply | > 0.1 µM

Ask | Entry CNc1cc(N2CCc3c(CN4CCC(CN5CC6(CCN(C(=O)c7ccc(Cl)c(N8CCC(=O)NC8=O)c7)CC6)C5)CC4)cccc32)nn2c(C(=O)N[C@@H]3C[C@@H]3F)cnc12 needs its DC50 filled in; supply it.
Reply | < 0.01 µM

Ask | Determine its reported DC50: CNc1cc(N2CCc3c(-c4ccc(CN5CCC(N6CC(N7CCN(c8ccc9c(c8)n(C)c(=O)n9C8CCC(=O)NC8=O)CC7)C6)C(F)(F)C5)cn4)cccc32)nn2c(C(=O)N[C@@H]3C[C@@H]3F)cnc12 (some centres unmarked)
Reply | < 0.001 µM

Ask | Report measured DC50; entry is CNc1cc(N2CCc3c(-c4ccc(CN5CC6(CCN(Cc7ccc(OC)c(N8CCC(=O)NC8=O)c7)CC6(F)F)C5)cn4)cccc32)nn2c(C(=O)N[C@@H]3C[C@@H]3F)cnc12
Reply | < 0.01 µM

Ask | Identify measured DC50 corresponding to CNc1cc(N2CCc3c(CN4CCC(N5CCC6(CCN(C(=O)c7cc(F)c(Cl)c(N8CCC(=O)NC8=O)c7)CC6)CC5)C(F)(F)C4)cccc32)nn2c(C(=O)NC3CCC3OC)cnc12 (centres unmarked)
Reply | < 0.001 µM
